TESTED SYSTEM: furin, P09958;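 note: purified furin at 1:10 enzyme:substrate in 50 mM HEPES pH 7.5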
Sequence (P09958 whole entry): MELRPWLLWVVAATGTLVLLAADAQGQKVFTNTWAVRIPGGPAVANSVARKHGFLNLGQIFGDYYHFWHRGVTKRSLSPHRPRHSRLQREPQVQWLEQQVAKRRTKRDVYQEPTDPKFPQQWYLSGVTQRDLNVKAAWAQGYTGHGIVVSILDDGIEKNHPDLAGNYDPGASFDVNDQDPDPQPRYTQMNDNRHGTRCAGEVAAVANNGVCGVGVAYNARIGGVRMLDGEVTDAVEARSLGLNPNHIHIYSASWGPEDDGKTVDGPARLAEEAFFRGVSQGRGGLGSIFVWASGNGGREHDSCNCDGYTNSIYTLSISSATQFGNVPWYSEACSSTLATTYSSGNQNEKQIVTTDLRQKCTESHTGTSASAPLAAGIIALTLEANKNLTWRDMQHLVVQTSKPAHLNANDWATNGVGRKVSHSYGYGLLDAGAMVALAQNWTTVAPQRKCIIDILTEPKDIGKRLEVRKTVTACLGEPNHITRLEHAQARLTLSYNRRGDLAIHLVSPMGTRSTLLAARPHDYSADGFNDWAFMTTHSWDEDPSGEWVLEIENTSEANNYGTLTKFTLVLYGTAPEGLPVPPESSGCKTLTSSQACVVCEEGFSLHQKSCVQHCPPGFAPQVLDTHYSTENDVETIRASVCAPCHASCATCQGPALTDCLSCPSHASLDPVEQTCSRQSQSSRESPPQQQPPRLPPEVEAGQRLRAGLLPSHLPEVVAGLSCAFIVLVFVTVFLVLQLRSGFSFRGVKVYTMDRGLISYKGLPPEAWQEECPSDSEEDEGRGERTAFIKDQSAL
EXPERIMENT NOTES: furin cleavage Z-score vs untreated control; higher = more cleavage, active = 3.5 or more, inactive = 1 or less, 8 variable residues between constant flanks
STATED CONDITIONS: 7.5 min
Some of the results follow. No count for the full screen is at hand.
Entries and their measured furin cleavage Z-score follow.
A bare number is all that is needed in reply.

Example cases with answers are listed next.
INPUT: Can you look up the measured furin cleavage Z-score of CALSFRLKRNAGNASASA [FS-1372] for me?
OUTPUT: 12.3

INPUT: Again, but for CAYINRKKKVAGNASASA [FS-633]
OUTPUT: -0.8

INPUT: Again, but for CARRQRRVPGAGNASASA [FS-3060]
OUTPUT: 0.752

INPUT: Again, but for CAFSYDTRCFAGNASASA [HC1479]
OUTPUT: -0.0881

INPUT: Again, but for CAEDEREISVAGNASASA [HC1292]
OUTPUT: 0.521

INPUT: Again, but for CARRKRHISVAGNASASA [FS-3262]
OUTPUT: 5.85

INPUT: Again, but for CARYARWAGAAGNASASA [FS-1808]
OUTPUT: 3.25

INPUT: Again, but for CARRKRRAPLAGNASASA [FS-2594]
OUTPUT: 4.11

INPUT: Again, but for CAHPDATYSRAGNASASA [HC455]
OUTPUT: -0.242

INPUT: Again, but for CAGEIPFYGKAGNASASA [HC846]
OUTPUT: 1.57

Next:
INPUT: Can you look up the measured furin cleavage Z-score of CAQLRRHIDLAGNASASA [HC289] for me?
OUTPUT: -1.12

INPUT: Again, but for CAGKSLKKRSAGNASASA [FS-1198]
OUTPUT: 10.8

INPUT: Again, but for CARYHRDAGAAGNASASA [FS-1809]
OUTPUT: 1.33

INPUT: Again, but for CATARHTPVNAGNASASA [HC1570]
OUTPUT: -0.556

INPUT: Again, but for CANSTALNCNAGNASASA [HC372]
OUTPUT: 1.61
